Data provenance is paper PMC11062922.

- Test System: endogenous kinases and other proteins enriched by Kinobeads from mixed cancer cell lysates (Homo sapiens, UniProt Q13873)
- Construct: endogenous in cells
- Sequence (Q13873 27-1038): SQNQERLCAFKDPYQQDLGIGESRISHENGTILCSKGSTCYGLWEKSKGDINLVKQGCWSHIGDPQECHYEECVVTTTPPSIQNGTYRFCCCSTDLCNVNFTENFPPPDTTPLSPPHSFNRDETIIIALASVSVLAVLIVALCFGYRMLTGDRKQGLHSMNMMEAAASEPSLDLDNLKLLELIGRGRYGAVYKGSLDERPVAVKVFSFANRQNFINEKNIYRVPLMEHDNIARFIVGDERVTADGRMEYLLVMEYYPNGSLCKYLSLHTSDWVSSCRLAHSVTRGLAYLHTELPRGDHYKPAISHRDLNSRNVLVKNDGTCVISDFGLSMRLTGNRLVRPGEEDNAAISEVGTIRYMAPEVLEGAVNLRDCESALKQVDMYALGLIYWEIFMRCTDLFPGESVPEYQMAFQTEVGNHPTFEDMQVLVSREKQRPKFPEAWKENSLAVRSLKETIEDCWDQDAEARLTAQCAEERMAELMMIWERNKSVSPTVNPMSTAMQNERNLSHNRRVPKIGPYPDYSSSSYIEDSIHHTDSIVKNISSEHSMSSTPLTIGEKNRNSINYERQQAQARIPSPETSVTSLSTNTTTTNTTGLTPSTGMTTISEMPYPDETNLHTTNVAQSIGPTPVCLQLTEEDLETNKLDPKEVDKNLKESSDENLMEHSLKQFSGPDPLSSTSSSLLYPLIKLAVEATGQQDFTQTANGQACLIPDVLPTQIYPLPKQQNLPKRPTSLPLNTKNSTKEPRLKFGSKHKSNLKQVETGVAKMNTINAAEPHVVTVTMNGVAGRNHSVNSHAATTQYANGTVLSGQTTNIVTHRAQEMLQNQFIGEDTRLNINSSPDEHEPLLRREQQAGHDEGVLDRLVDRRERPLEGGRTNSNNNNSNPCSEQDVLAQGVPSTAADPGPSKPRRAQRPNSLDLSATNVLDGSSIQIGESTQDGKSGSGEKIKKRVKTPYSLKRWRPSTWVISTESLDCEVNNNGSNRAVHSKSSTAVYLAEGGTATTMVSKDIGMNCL
- Experiment Summary: Kinobeads pulldown, full dose-response (eight doses)
- Test Conditions: target BMPR2; read-out: apparent Kd
Outcome Measure: pKd
Reminder that pKd is minus the log10 of a molar concentration.

Reported pKd of `Cn1cc(-c2nc(N[C@@H]3CCCC[C@@H]3N)c(F)c3c2C(=O)NC3)cn1` : 6.59

* * *

- Test system: CDC42BPG
- Experiment Summary: Kinobeads competition binding: CDC42BPG
- Design: species or system human
- Test Conditions: target CDC42BPG
Outcome Measure: CATDS
Reply: number alone, nothing else.

Case N#CC1(c2ccc(NC(=O)c3cccnc3NCc3ccncc3)cc2)CCCC1 [Apatinib] , CDC42BPG, CATDS recorded as 0

Case Nc1ncnc2[nH]c(-c3ccccc3)nc12 [AH5015_KCGS] , CDC42BPG, CATDS recorded as 0

Case CCc1cc2c(cc1N1CCC(N3CCOCC3)CC1)C(C)(C)c1[nH]c3cc(C#N)ccc3c1C2=O [Alectinib] , CDC42BPG, CATDS recorded as 0

Case CCN1CCN(Cc2ccc(Nc3ncc(F)c(-c4cc(F)c5nc(C)n(C(C)C)c5c4)n3)nc2)CC1 [Abemaciclib] , CDC42BPG, CATDS recorded as 0

* * *

- Test System: ABL2 (Homo sapiens, UniProt P42684)
- Construct: endogenous in cells
- Sequence (P42684 whole entry): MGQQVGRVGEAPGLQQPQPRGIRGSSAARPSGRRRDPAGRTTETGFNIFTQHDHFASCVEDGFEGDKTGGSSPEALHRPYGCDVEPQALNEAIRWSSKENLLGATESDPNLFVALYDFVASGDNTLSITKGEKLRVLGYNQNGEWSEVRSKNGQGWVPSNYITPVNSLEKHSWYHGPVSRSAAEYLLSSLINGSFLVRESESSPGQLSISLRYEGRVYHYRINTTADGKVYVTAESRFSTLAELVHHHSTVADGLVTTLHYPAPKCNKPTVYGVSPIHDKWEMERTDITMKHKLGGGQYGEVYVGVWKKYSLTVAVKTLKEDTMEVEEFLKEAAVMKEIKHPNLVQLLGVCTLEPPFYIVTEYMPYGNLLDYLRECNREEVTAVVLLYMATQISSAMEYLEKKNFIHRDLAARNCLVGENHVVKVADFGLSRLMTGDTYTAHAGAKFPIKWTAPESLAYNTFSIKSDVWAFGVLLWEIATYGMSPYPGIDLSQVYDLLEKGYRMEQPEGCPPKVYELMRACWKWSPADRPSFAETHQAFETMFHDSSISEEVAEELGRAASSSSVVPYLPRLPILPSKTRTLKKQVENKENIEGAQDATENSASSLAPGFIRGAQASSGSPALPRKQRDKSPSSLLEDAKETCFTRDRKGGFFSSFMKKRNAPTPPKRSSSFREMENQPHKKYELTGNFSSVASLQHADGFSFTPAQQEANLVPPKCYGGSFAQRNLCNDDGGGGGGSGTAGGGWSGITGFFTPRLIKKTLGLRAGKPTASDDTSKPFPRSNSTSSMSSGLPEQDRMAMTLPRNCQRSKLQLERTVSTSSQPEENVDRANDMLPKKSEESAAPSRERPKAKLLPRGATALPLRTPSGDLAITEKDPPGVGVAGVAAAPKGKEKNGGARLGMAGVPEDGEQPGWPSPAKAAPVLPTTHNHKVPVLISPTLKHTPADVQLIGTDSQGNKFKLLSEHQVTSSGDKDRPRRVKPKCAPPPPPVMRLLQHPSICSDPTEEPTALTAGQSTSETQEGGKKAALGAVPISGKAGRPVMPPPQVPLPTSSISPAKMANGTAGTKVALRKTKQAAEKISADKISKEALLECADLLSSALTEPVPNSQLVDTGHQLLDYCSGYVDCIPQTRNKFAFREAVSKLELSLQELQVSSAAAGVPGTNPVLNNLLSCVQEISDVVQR
- Experiment Summary: Kinobeads two-dose competition binding: ABL2
- Test Conditions: sheet CATDS matrix 2; Gene Name ABL2
Outcome Measure: CATDS
Reply: number alone, nothing else.

Worked cases, answers included:
[
  {
    "Molecule": "Cc1cn2c(=O)cc(N3CCOCC3)nc2n1Cc1cccc(Cl)c1Cl [GSK2334006A]",
    "Outcome Measure": "CATDS",
    "Endpoint Value": 0
  },
  {
    "Molecule": "CC1=C(C(=O)Nc2ccc3[nH]ncc3c2)C(c2ccc(F)cc2)NC(=O)N1 (stereo not shown) [GSK180736A]",
    "Outcome Measure": "CATDS",
    "Endpoint Value": 0
  },
  {
    "Molecule": "NCC(C(=O)Nc1cc(Br)c(-c2ccnc3[nH]ccc23)s1)c1ccccc1 (stereo not shown) [GSK1269851A]",
    "Outcome Measure": "CATDS",
    "Endpoint Value": 0.01467
  }
]

Consider the record given below.
Reported CATDS of CCS(=O)(=O)N1CC(CC#N)(n2cc(-c3ncnc4[nH]ccc34)cn2)C1 [Baricitinib, reference compound] : 0

* * *

- Test System: endogenous kinases and other proteins enriched by Kinobeads from mixed cancer cell lysates (Homo sapiens, UniProt P11274)
- Construct: endogenous in cells
- Sequence (P11274 1-1271): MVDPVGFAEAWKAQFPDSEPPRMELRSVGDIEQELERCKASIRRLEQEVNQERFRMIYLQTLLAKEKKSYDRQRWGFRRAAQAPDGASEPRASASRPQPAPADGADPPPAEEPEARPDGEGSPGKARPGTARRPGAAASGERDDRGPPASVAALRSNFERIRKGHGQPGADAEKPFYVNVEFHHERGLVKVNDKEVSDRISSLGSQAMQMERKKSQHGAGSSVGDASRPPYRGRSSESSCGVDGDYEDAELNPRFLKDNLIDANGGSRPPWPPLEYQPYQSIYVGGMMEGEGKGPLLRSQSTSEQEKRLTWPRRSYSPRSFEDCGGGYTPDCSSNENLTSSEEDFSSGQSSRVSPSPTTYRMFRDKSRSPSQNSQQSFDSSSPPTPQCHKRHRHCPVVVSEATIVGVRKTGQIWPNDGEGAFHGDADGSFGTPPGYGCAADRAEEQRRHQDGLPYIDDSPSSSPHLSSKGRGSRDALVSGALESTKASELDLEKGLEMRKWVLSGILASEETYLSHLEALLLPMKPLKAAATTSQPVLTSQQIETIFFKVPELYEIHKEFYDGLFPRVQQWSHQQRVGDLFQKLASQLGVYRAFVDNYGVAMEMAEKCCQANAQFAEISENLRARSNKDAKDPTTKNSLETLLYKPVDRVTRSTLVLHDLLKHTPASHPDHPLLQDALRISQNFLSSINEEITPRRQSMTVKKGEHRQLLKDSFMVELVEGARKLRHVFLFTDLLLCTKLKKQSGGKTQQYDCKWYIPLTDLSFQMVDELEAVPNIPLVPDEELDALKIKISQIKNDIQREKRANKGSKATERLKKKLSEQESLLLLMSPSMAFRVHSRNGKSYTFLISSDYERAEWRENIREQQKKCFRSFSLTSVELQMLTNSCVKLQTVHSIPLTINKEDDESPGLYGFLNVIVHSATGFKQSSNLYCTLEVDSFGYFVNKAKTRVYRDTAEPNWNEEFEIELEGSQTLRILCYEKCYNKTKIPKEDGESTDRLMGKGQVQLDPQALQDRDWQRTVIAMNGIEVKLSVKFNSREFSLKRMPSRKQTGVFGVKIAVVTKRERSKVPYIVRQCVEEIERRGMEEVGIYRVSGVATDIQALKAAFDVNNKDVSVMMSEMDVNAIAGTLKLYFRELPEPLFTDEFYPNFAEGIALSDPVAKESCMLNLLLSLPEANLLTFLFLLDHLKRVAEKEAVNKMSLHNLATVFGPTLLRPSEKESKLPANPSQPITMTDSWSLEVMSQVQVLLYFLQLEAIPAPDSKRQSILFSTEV
- Experiment Summary: Kinobeads pulldown, full dose-response (eight doses);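 further: competition with Kinobeads ε after inhibitor preincubation in lysate (5 mg/ml protein) for 45 min at 4 °C, DMSO control, doses 0.3–1,000 nM, label-free LC–MS/MS quantification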
- Test Conditions: target BCR
Outcome Measure: EC50

Reported EC50 of `Cn1cc(-c2nc(N[C@@H]3CCCC[C@@H]3N)c(F)c3c2C(=O)NC3)cn1` : 1020 nM
